Molecular target: feline FcRn complex (FcRn-α subunit and β-microglobulin), biotin labeled (feline)
Experiment: SPR, pH 6
metric: Kd (nM)
Numeric answer only, unit nM assumed.

For orientation, consider the following solved cases.
binder	unit-label	recorded-result
feline IgG1a A378G (antibody, part only; not given: Variable domains, not shown: another chain or arm of the molecule) constant: ASTTAPSVFPLAPSCGTTSGATVALACLVLGYFPEPVTVSWNSGALTSGVHTFPAVLQASGLYSLSSMVTVPSSRWLSDTFTCNVAHPPSNTKVDKTVRKTDHPPGPKPCDCPKCPPPEMLGGPSIFIFPPKPKDTLSISRTPEVTCLVVDLGPDDSDVQITWFVDNTQVYTAKTSPREEQFNSTYRVVSVLPILHQDWLKGKEFKCKVNSKSLPSPIERTISKAKGQPHEPQVYVLPPAQEELSRNKVSVTCLIKSFHPPDIGVEWEITGQPEPENNYRTTPPQLDSDGTYFVYSKLSVDRSHWQRGNTYTCSVSHEALHSHHTQKSLTQSPGK	nM	88.3
feline IgG1a S254W (antibody, part only; not given: Variable domains, not shown: another chain or arm of the molecule) constant: ASTTAPSVFPLAPSCGTTSGATVALACLVLGYFPEPVTVSWNSGALTSGVHTFPAVLQASGLYSLSSMVTVPSSRWLSDTFTCNVAHPPSNTKVDKTVRKTDHPPGPKPCDCPKCPPPEMLGGPSIFIFPPKPKDTLSIWRTPEVTCLVVDLGPDDSDVQITWFVDNTQVYTAKTSPREEQFNSTYRVVSVLPILHQDWLKGKEFKCKVNSKSLPSPIERTISKAKGQPHEPQVYVLPPAQEELSRNKVSVTCLIKSFHPPDIAVEWEITGQPEPENNYRTTPPQLDSDGTYFVYSKLSVDRSHWQRGNTYTCSVSHEALHSHHTQKSLTQSPGK	nM	60.9

Briefly, Kd measured for feline IgG1a S252Y/D312P/L314K (antibody, part only; not given: Variable domains, not shown: another chain or arm of the molecule) constant: ASTTAPSVFPLAPSCGTTSGATVALACLVLGYFPEPVTVSWNSGALTSGVHTFPAVLQASGLYSLSSMVTVPSSRWLSDTFTCNVAHPPSNTKVDKTVRKTDHPPGPKPCDCPKCPPPEMLGGPSIFIFPPKPKDTLYISRTPEVTCLVVDLGPDDSDVQITWFVDNTQVYTAKTSPREEQFNSTYRVVSVLPILHQPWKKGKEFKCKVNSKSLPSPIERTISKAKGQPHEPQVYVLPPAQEELSRNKVSVTCLIKSFHPPDIAVEWEITGQPEPENNYRTTPPQLDSDGTYFVYSKLSVDRSHWQRGNTYTCSVSHEALHSHHTQKSLTQSPGK : 26.7

In plain terms, feline IgG1a E430Q (antibody, part only; not given: Variable domains, not shown: another chain or arm of the molecule) constant: ASTTAPSVFPLAPSCGTTSGATVALACLVLGYFPEPVTVSWNSGALTSGVHTFPAVLQASGLYSLSSMVTVPSSRWLSDTFTCNVAHPPSNTKVDKTVRKTDHPPGPKPCDCPKCPPPEMLGGPSIFIFPPKPKDTLSISRTPEVTCLVVDLGPDDSDVQITWFVDNTQVYTAKTSPREEQFNSTYRVVSVLPILHQDWLKGKEFKCKVNSKSLPSPIERTISKAKGQPHEPQVYVLPPAQEELSRNKVSVTCLIKSFHPPDIAVEWEITGQPEPENNYRTTPPQLDSDGTYFVYSKLSVDRSHWQRGNTYTCSVSHQALHSHHTQKSLTQSPGK has a documented Kd of 6.58
